Test system: RAW-Dual (murine macrophage reporter line)
Assay: viability score (confluency relative to resting cells, overnight) (fraction); higher = more viable, active = viable (0.7 or more)
Conditions: modulator concentration 10 µM
Possible outcomes: True = active, False = inactive

                            chemical_string                       experimental_system  assigned_class
0  COc1ccccc1C(=O)Nc1cnc(N2CCN(c3ccccn3)CC2)nc1  RAW-Dual (murine macrophage reporter line)            True
1                 Cc1cc(NC2CCCC2)nc2ccccc12  RAW-Dual (murine macrophage reporter line)           False
2  O=c1[nH]c(NN=Cc2c3ccccc3cc3ccccc23)nc2ccccc12  RAW-Dual (murine macrophage reporter line)            True
3  COc1ccccc1NS(=O)(=O)c1cc2c3c(c1)CC(=O)N3CCC2  RAW-Dual (murine macrophage reporter line)            True
4           CCN(CC)c1ccc(NC(=O)C(C)(C)C)cc1  RAW-Dual (murine macrophage reporter line)            True
5  CS(=O)(=O)O.Cc1ccc(N(CC2=NCCN2)c2cccc(O)c2)cc1  RAW-Dual (murine macrophage reporter line)            True
